# Species on record: Rattus norvegicus
# TEST METHOD NOTES: Open TG-GATES - Regimen: Single
# Format: toxicity, organism-based, Sprague-Dawley
# Set-up: regimen Single, gender Male, age 6 weeks
# TEST SETTINGS: in vivo, po, 0 mg/kg, 24 h, tissue Plasma, route gavage, dose level Control
QUANTITY MEASURED: ALT
State the value with its unit after it.

Look over these answered cases.
CN1C(=O)OC(C)(C)C1=O = 47.2 IU/L
C#C[C@]1(O)CC[C@H]2[C@@H]3CCc4cc(O)ccc4[C@H]3CC[C@@]21C = 52.2 IU/L
C[C@](N)(Cc1ccc(O)c(O)c1)C(=O)O = 55.2 IU/L
CC(C)C(=O)Nc1ccc([N+](=O)[O-])c(C(F)(F)F)c1 [FLUTAMIDE] = 39.8 IU/L
Nc1nc(N)c2nc(-c3ccccc3)c(N)nc2n1 = 47.4 IU/L

[Q] Query (compound): C[C@]12CCC(=O)C=C1CC[C@@H]1[C@@H]2CC[C@@]2(C)[C@H]1CC[C@]2(C)O ; field requested: ALT
[A] 48.4 IU/L

[Q] Item under review: CC(=O)Oc1cc(C(C)C)c(OCCN(C)C)cc1C . Reported ALT?
[A] 44.8 IU/L

[Q] // returns reported ALT for input CCc1oc2ccccc2c1C(=O)c1cc(I)c(O)c(I)c1
[A] 37.8 IU/L

[Q] Bench note: what ALT did CCSCC[C@H](N)C(=O)O show?
[A] 41 IU/L

[Q] Reported ALT for CCC(C)(C)C(=O)O[C@H]1C[C@@H](C)C=C2C=C[C@H](C)[C@H](CC[C@@H]3C[C@@H](O)CC(=O)O3)[C@H]21 : what is it?
[A] 38.8 IU/L

[Q] Field request: ALT | item: O=C(N[C@H](CO)[C@H](O)c1ccc([N+](=O)[O-])cc1)C(Cl)Cl
[A] 48.2 IU/L

[Q] Any idea what its ALT is? The compound is CC(=N)S [THIOACETAMIDE]
[A] 32.5 IU/L

----------
# Species: Rattus norvegicus
# TEST METHOD NOTES: Open TG-GATES - Regimen: Daily Repeat
# Format: toxicity, organism-based, Sprague-Dawley
# Set-up: regimen Daily Repeat, gender Male, age 6 weeks
# TEST SETTINGS: in vivo, po, 1000 mg/kg, […], tissue Plasma, route gavage, dose level High, time 28 day
QUANTITY MEASURED: Ca (mg/dL)
Answer in mg/dL, number only, no unit symbol.

CC(C)(S)[C@@H](N)C(=O)O = 10.5
O=C(N[C@H](CO)[C@H](O)c1ccc([N+](=O)[O-])cc1)C(Cl)Cl = 10.4
O=C(O)c1cccnc1 = 10.5

[Q] What does the data say about its Ca? Entry: CCN1CCCC1CNC(=O)c1cc(S(N)(=O)=O)ccc1OC (centres undefined) [SULPIRIDE]
[A] 10.6

----------
# Organism: Rattus norvegicus
# TEST METHOD NOTES: Open TG-GATES - Regimen: Daily Repeat
# Type: toxicity, organism-based, Sprague-Dawley
# Set-up: regimen Daily Repeat, gender Male, age 6 weeks
# TEST SETTINGS: in vivo, po, 100 mg/kg, 72 h, tissue Blood, route gavage, dose level Low, time 3 day
# Lookup of reported Plat keyed by entry
Express it in x10_4/uL; write the number only.

Consider the worked cases shown below.
O=C(N[C@H](CO)[C@H](O)c1ccc([N+](=O)[O-])cc1)C(Cl)Cl = 116.8
CCN1CCCC1CNC(=O)c1cc(S(N)(=O)=O)ccc1OC (centres undefined) [SULPIRIDE] = 122
CC(C)(S)[C@@H](N)C(=O)O = 122

Could you now consider this next compound?
[Q] // returns reported Plat for input O=C(O)c1cccnc1
[A] 107.5

----------
Let's look at some compounds and their measured TERMINAL_BW.
# Species on record: Rattus norvegicus
# TEST METHOD NOTES: Open TG-GATES - Regimen: Daily Repeat
# Assay type: toxicity, organism-based, Sprague-Dawley
# Design: regimen Daily Repeat, gender Male, age 6 weeks
# TEST SETTINGS: in vivo, po, 0 mg/kg, […], route gavage, dose level Control, time 7 day
Give the value, in units of g, as a plain number.

CCN1CCCC1CNC(=O)c1cc(S(N)(=O)=O)ccc1OC (stereo not given) [SULPIRIDE] = 264.7
Nc1nc(N)c2nc(-c3ccccc3)c(N)nc2n1 = 286.3
Oc1ncnc2[nH]ncc12 [ALLOPURINOL] = 249.8
C[C@]12CCC(=O)C=C1CC[C@@H]1[C@@H]2CC[C@@]2(C)[C@H]1CC[C@]2(C)O [METHYLTESTOSTERONE] = 278.3
CCc1oc2ccccc2c1C(=O)c1cc(I)c(O)c(I)c1 [BENZIODARONE] = 272.7

[Q] // TERMINAL_BW lookup, key: CCSCC[C@H](N)C(=O)O [ETHIONINE]
[A] 269.1

[Q] Would you mind telling me what TERMINAL_BW value was observed for O=C(O)c1cccnc1 [NIACIN] ?
[A] 268.8

[Q] What measured TERMINAL_BW goes with CC(C)(S)[C@@H](N)C(=O)O [PENICILLAMINE] ?
[A] 275.3

[Q] So what does the record say about TERMINAL_BW for CC(=O)Oc1cc(C(C)C)c(OCCN(C)C)cc1C [MOXISYLYTE] ?
[A] 251.3

[Q] // query TERMINAL_BW value for entry CC(=N)S [THIOACETAMIDE]
[A] 254.8

[Q] # query: TERMINAL_BW of entry CC(C)C(=O)Nc1ccc([N+](=O)[O-])c(C(F)(F)F)c1 [FLUTAMIDE]
[A] 253

[Q] For CCC(C)(C)C(=O)O[C@H]1C[C@@H](C)C=C2C=C[C@H](C)[C@H](CC[C@@H]3C[C@@H](O)CC(=O)O3)[C@H]21 [SIMVASTATIN] , what is its reported TERMINAL_BW?
[A] 253.4

----------
# Species on record: Rattus norvegicus
# TEST METHOD NOTES: Open TG-GATES - Regimen: Daily Repeat
# Type: toxicity, organism-based, Sprague-Dawley
# Set-up: regimen Daily Repeat, gender Male, age 6 weeks
# TEST SETTINGS: in vivo, po, 300 mg/kg, […], tissue Blood, route gavage, dose level Middle, time 14 day
# key: entry, value: Plat

CCN1CCCC1CNC(=O)c1cc(S(N)(=O)=O)ccc1OC (centres undefined) [SULPIRIDE] = 121.1 x10_4/uL
O=C(N[C@H](CO)[C@H](O)c1ccc([N+](=O)[O-])cc1)C(Cl)Cl [CHLORAMPHENICOL] = 123.5 x10_4/uL
O=C(O)c1cccnc1 [NIACIN] = 109.4 x10_4/uL

[Q] // returns reported Plat for input CC(C)(S)[C@@H](N)C(=O)O [PENICILLAMINE]
[A] 133 x10_4/uL

----------
Ca values, listed per item
# Organism: Rattus norvegicus
# TEST METHOD NOTES: Open TG-GATES - Regimen: Daily Repeat
# Type: toxicity, organism-based, Sprague-Dawley
# Parameters: regimen Daily Repeat, gender Male, age 6 weeks
# TEST SETTINGS: in vivo, po, 0 mg/kg, 72 h, tissue Plasma, route gavage, dose level Control, time 3 day
The figure you give is taken to be in mg/dL; do not add the unit.

C[C@]12CCC(=O)C=C1CC[C@@H]1[C@@H]2CC[C@@]2(C)[C@H]1CC[C@]2(C)O = 10.9
CCc1oc2ccccc2c1C(=O)c1cc(I)c(O)c(I)c1 = 10.7
C#C[C@]1(O)CC[C@H]2[C@@H]3CCc4cc(O)ccc4[C@H]3CC[C@@]21C = 10.8
CCSCC[C@H](N)C(=O)O = 10.8

Now let's try a different one.
[Q] Param item = C[C@](N)(Cc1ccc(O)c(O)c1)C(=O)O ; retrieve measured Ca.
[A] 11.1

----------
# Species on record: Rattus norvegicus
# TEST METHOD NOTES: Open TG-GATES - Regimen: Single
# Assay type: toxicity, organism-based, Sprague-Dawley
# Parameters: regimen Single, gender Male, age 6 weeks
# TEST SETTINGS: in vivo, po, 0 mg/kg, 9 h, tissue Plasma, route gavage, dose level Control
QUANTITY MEASURED: gamma-GTP

Example entries and their recorded answers appear below.
Oc1ncnc2[nH]ncc12 [ALLOPURINOL] = 1.2 IU/L
O=C(N[C@H](CO)[C@H](O)c1ccc([N+](=O)[O-])cc1)C(Cl)Cl [CHLORAMPHENICOL] = 1 IU/L
CC(C)C(=O)Nc1ccc([N+](=O)[O-])c(C(F)(F)F)c1 [FLUTAMIDE] = 0.8 IU/L
CN1C(=O)OC(C)(C)C1=O [TRIMETHADIONE] = 1.2 IU/L
CCc1oc2ccccc2c1C(=O)c1cc(I)c(O)c(I)c1 [BENZIODARONE] = 0.8 IU/L

[Q] Recorded gamma-GTP for CC(=O)Oc1cc(C(C)C)c(OCCN(C)C)cc1C [MOXISYLYTE] , please?
[A] 1 IU/L

[Q] If you can, please state the reported gamma-GTP value of CCN1CCCC1CNC(=O)c1cc(S(N)(=O)=O)ccc1OC (stereo unspecified) [SULPIRIDE] .
[A] 1.4 IU/L

[Q] Which gamma-GTP reading was recorded for the compound CC(=N)S [THIOACETAMIDE] ?
[A] 1.4 IU/L
